Experiment: yeast display, Sf9 membrane polyspecificity reagent, FACS + sequencing; frameworks hold sequencing errors
READOUT NAME: polyreactivity (PSR sort gate)

* QVQHVESGGGLVQAGGSLRLSCAASGRTFPLNAMGWYRQAPGKERELVYAITWSGGRTYYADSVKGRFTISRDYAKNTVYLQMNSLKPEDTAVYYCAAKRTTWKIQSGYDYWGQGTQVTVSS | low polyreactivity
* RVQLQESGGGLVQAGGSLRLSCEASGTIFIRGDMGWYRQATGKEREFVATIDTGSNTYYADSEKGRFTISRDNAKNAVYLQMNCLKPGDTAVYYCVVDYQLSGRLRYWGQGTQVTLSS | low polyreactivity
* QVQLVESGRGLDQAGGSLRLSCAASGSIIGANAMGWYRQAPGKERELVAAITDNTSTTFYADSVKGRFTISRDNAKNTVYLQMNSLKPEDTAVYYCNADRAVVLSTTVWGEYDYWGQGTQVTVSS | low polyreactivity
* QVQLVESGGGLVQAGGTISLSCAASGRTYRNNAMGWYRQAPGKEMELVAAISRTGGRTYYADSVKGRFTISRDNAKNPVYLQMNSLKPEDSAVYYCNAAYLVREYDYWGQGTQVTVSS | high polyreactivity
* QVQLVESGGGLVQAGGSLRLSCSASGRTSQWNAMGWYRQAPGKERELVAAISWRTGGTYYADSVKGRFTISRDKAKNTVYLQMNSLQPEDTAVYYCAAGYIGGRPQYWRIGGYWGQGTQVTVSS | high polyreactivity

[in] What polyreactivity (PSR sort gate) value was documented for this sequence, `QVQLVESGGGLVQAGGSLRLSCAASGLNFSGYAMGWYRQAPGKESEMVAAINSGTSTTYADSVKARFTISRDNAKNTVYLQMNSMKPDDTAVYSCSATLEGGWWATYGSDYWGRGTQVTVSS` ?
[out] low polyreactivity

[in] Endpoint output: polyreactivity (PSR sort gate) of `QVQLVESGGGLVQSGGSLRLSGAASGSTYGLNAMGWYRQAPRKEMELVAAITRSDITNYADSVNGRFRISRDNAKNTVYLQMNSLKPEDTAVYYCNKTPDRHRRYFGYGYWGQGTQVTVSS` . Value?
[out] low polyreactivity

The measured values listed here are drawn from the nanobody polyreactivity screen of Harvey et al. (2022).
